// provenance: patent US20210355166A1

measurement target: human µ-opioid receptor (hMOPr), human recombinant MOPr expressed in HEK-293 cells (human, UniProt P35372 1-400)
Sequence (P35372 whole entry): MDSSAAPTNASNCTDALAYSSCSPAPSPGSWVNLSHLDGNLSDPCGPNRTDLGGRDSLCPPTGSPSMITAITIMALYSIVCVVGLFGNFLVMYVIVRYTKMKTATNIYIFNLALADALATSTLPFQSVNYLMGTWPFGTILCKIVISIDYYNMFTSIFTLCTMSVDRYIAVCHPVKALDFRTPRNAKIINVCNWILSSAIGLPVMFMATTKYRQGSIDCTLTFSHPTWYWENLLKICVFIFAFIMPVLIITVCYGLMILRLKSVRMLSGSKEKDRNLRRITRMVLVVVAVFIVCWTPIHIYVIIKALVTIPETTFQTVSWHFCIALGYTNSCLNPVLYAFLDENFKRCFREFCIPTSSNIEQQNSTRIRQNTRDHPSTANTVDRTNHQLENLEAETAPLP
assay method text: cell-based or functional assay
Non-standard residues stand in square brackets, D forms with d.
property measured: % inhibition of forskolin-stimulate cAMP formation in hMOPr HEK cells (10 um) (%)
Field format: number, assumed %, no unit text.

Worked examples follow.
H-FGV[dY]-NH2 (SMILES CC(C)[C@H](NC(=O)CNC(=O)[C@@H](N)Cc1ccccc1)C(=O)N[C@H](Cc1ccc(O)cc1)C(N)=O) [H-FGVy-NH2]	0
H-[dF]V[dV]F-OH [H-fVvF-OH]	0
H-[dF][dV]VF-OH [H-fvVF-OH]	0
FVVF (D-Val at 3; D-Phe at 4; C-terminal amide) [H-FVvf-NH2]	0
H-F[dV]G[dY]-NH2 (SMILES CC(C)[C@@H](NC(=O)[C@@H](N)Cc1ccccc1)C(=O)NCC(=O)N[C@H](Cc1ccc(O)cc1)C(N)=O, also called 2d; peptide 2d) [H-FvGy-NH2 (L-Phe-D-Val-Gly-D-Tyr-NH2)]	31

(Q) Give the measured % inhibition of forskolin-stimulate cAMP formation in hMOPr HEK cells (10 um) for H-FVVY-NH2 [H-FVVY-NH2]
(A) 0

(Q) Read off the recorded % inhibition of forskolin-stimulate cAMP formation in hMOPr HEK cells (10 um) for FVVF (D-Val at 2; D-Phe at 4; C-terminal amide, also called 1e; peptide 1e) [H-FvVf-NH2 (L-Phe-D-Val-L-Val-D-Phe-NH2)]
(A) 47

(Q) Look up and report measured % inhibition of forskolin-stimulate cAMP formation in hMOPr HEK cells (10 um) for this entry: FVVF (D-Phe at 1; D-Val at 3; C-terminal amide) [H-fVvF-NH2]
(A) 0

(Q) Given YVVF (D-Val at 2; D-Phe at 4; free C-terminal acid, Natural product of Penicillium sp; MST-MF667; made by Fmoc synthesis; also called 3a; peptide 3a) [bilaid C (H-YvVf-OH; L-Tyr-D-Val-L-Val-D-Phe)] , respond with its % inhibition of forskolin-stimulate cAMP formation in hMOPr HEK cells (10 um).
(A) 77
